log10 of TGI listing for selected molecules.
system: ACHN renal; experiment: NCI tumour cell line growth inhibition, 48 h
quantityKind: log10 of TGI (log10 of the value in µM)

molecule=O=c1oc2cc(O)ccc2cc1-c1nc2ccccc2s1 valuemeasured=1.72
molecule="COc1cc(C2c3[nH]c4ccc(F)cc4c3C[C@H]3COC(=O)N23)cc(OC)c1O (some centres undefined)" valuemeasured=1.42
molecule=CN1C(=O)c2cc([N+](=O)[O-])ccc2[C@H]2C(=O)c3cc4c(cc3[C@H]21)OCO4 valuemeasured=-1.33
molecule=COC(=O)c1oc2c(O)c(OC)c(Br)cc2c1C valuemeasured=1.56
molecule=CCOC(=O)/C=C(\C(=O)OCC)n1cnc2c(N)ncnc21 valuemeasured=1.27
molecule=O=c1[nH]cc(N(CCCl)CCCl)c(=O)[nH]1 valuemeasured=1.97

----------
system: SW-620 colon; assay: NCI tumour cell line growth inhibition, 48 h
quantityKind: TGI (µM)

molecule="O=C1OC2c3ccccc3C(=O)C2(c2ccccc2)N1c1ccccc1 (configuration not stated)" targetentity="SW-620 colon" unitofmeasure=µM censoringqualifier=> valuemeasured=200
molecule=Oc1ccc2ccccc2c1C(c1ccc(Cl)cc1)c1c(O)ccc2ccccc12 targetentity="SW-620 colon" unitofmeasure=µM censoringqualifier== valuemeasured=18.4
molecule=COc1ccc(N2CCN(Cc3c(C(C)=O)[n+](=O)c4ccccc4n3[O-])CC2)cc1 targetentity="SW-620 colon" unitofmeasure=µM censoringqualifier=> valuemeasured=100
molecule=O=C1Nc2ccccc2/C1=C/c1cn(C(=O)c2c(Cl)cccc2Cl)c2ccccc12 targetentity="SW-620 colon" unitofmeasure=µM censoringqualifier== valuemeasured=12.5
molecule=CCOC(=O)/C=C(\C(=O)OCC)n1cnc2c(N)ncnc21 targetentity="SW-620 colon" unitofmeasure=µM censoringqualifier== valuemeasured=8.49
molecule=COc1ccc2c(c1)C(=O)/C(=C/c1ccc([N+](=O)[O-])s1)O2 targetentity="SW-620 colon" unitofmeasure=µM censoringqualifier== valuemeasured=0.507
molecule=CCCCCCCCCCCCCCCCOC(=O)c1c(C)[nH]c(/C=C2\N=C(c3ccc[nH]3)C=C2OC)c1C targetentity="SW-620 colon" unitofmeasure=µM censoringqualifier=> valuemeasured=100
molecule=COC(=O)c1oc2c(O)c(OC)c(Br)cc2c1C targetentity="SW-620 colon" unitofmeasure=µM censoringqualifier== valuemeasured=82.5
molecule="CC(=O)Nc1ccc(S(=O)(=O)[N-]C2C(=O)c3ccccc3C(=O)C2[n+]2ccccc2)cc1 (configuration not stated)" targetentity="SW-620 colon" unitofmeasure=µM censoringqualifier== valuemeasured=32.9
molecule="O=C(O)C(Cc1cnc[nH]1)N=Cc1nc(-c2ccccc2)oc1O (configuration not stated)" targetentity="SW-620 colon" unitofmeasure=µM censoringqualifier=> valuemeasured=100
molecule=COC1=CC(=O)c2c(O)ccc(O)c2C1=O targetentity="SW-620 colon" unitofmeasure=µM censoringqualifier== valuemeasured=17.7
molecule=Cc1cc(NS(=O)(=O)c2ccc(NC(=O)c3cccc4cc5ccccc5nc34)cc2)no1 targetentity="SW-620 colon" unitofmeasure=µM censoringqualifier== valuemeasured=70.2

----------
tested on: SNB-75 CNS; assay: NCI tumour cell line growth inhibition, 48 h; in the data active = GI50 below about 0.43 µM; inactive = the rest
Outcome codes: active, inactive

structure=COc1cc(Nc2ncc3c(C)nc(-c4cccc(Oc5ccccc5)c4)n3n2)cc(OC)c1OC classname=inactive
structure=CCN(CC)CCCNc1nc2ccccc2c2c(=O)c3cc(Cl)ccc3sc12 classname=inactive
structure=COc1ccc(Cn2cc3c(c2-c2ccc(O)cc2)CCc2cnoc2-3)cc1 classname=active
structure=COc1cc(/C=C/C(=O)C(C(=O)/C=C/c2ccc(OC(=O)CCNc3nnc(C)s3)c(OC)c2)C(=O)CCNc2nnc(C)s2)ccc1OC(=O)CCNc1nnc(C)s1 classname=inactive
structure=c1ccc2c(-c3nc4ccccc4[nH]3)cccc2c1 classname=inactive

----------
tested on: 786-0 renal; experiment: NCI tumour cell line growth inhibition, 48 h
quantityKind: GI50

compound="O=C(CC(O)c1ccncc1)c1ccccc1 (configuration not stated)" targetentity="786-0 renal" quantitykind=GI50 valuemeasured="30 µM"
compound=COc1cc(-n2cc(-c3ccc(F)cc3)[nH]c2=S)cc(OC)c1OC targetentity="786-0 renal" quantitykind=GI50 valuemeasured="63.6 µM"
compound=COc1ccc(/C(=N\O)c2cc(OC)c(OC)c(OC)c2)c(OC)c1N targetentity="786-0 renal" quantitykind=GI50 valuemeasured="6.77 µM"
compound=O=C1/C(=C/c2ccc(Cl)cc2)CN(Cc2cn(CCNc3ccnc4cc(Cl)ccc34)nn2)C/C1=C\c1ccc(Cl)cc1 targetentity="786-0 renal" quantitykind=GI50 valuemeasured="0.247 µM"
compound=COc1ccc2c(c1)C(=O)/C(=C/c1ccc([N+](=O)[O-])s1)O2 targetentity="786-0 renal" quantitykind=GI50 valuemeasured="1.47 µM"
compound=COC(=O)c1cc2c3ccccc3n3c(=O)c4cc5cc(OC)c(N(S(=O)(=O)c6ccc(C)cc6)S(=O)(=O)c6ccc(C)cc6)cc5nc4c(n1)c23 targetentity="786-0 renal" quantitykind=GI50 valuemeasured="3.23 µM"
compound="COc1cc(C2CC(c3ccc(Nc4ccnc5cc(Cl)ccc45)cc3)=NN2C=O)cc(OC)c1OC (configuration not stated)" targetentity="786-0 renal" quantitykind=GI50 valuemeasured="2.31 µM"

----------
Recorded measurements of TGI, one per entry
system: SN12C renal; experiment: NCI tumour cell line growth inhibition, 48 h
quantityKind: TGI

compound="CC(=O)O[C@H]1[C@@H](OC2CCCC2(c2ccccc2)c2ccccc2)O[N+]([O-])=C[C@@]12COCc1cc3c(cc12)OCO3 (stereo partly drawn)" quantitykind=TGI valuemeasured="> 39.6 µM"
compound=O=C(Nc1cccc([N+](=O)[O-])c1)c1ccc2ccccc2c1O quantitykind=TGI valuemeasured="> 93 µM"
compound="CC(=O)O[C@H]1CC[C@H]2[C@@H]3CCC4=C(C(=O)C=CC4(C)OC(C)=O)[C@H]3CC[C@]12C (stereo partly drawn)" quantitykind=TGI valuemeasured="> 100 µM"

----------
Measured GI50, listed per entry for reference.
tested on: UO-31 renal; experiment: NCI tumour cell line growth inhibition, 48 h
quantityKind: GI50

structure=C=C(C)[C@@H]1CC[C@]2(C(=O)O)CC[C@]3(C)[C@H](CC[C@@H]4[C@@]5(C)C[C@@H](CC#Cc6ccc(Br)cc6)C(=O)C(C)(C)[C@@H]5CC[C@]43C)[C@@H]12 targetentity="UO-31 renal" valuemeasured="> 100 µM"
structure=Cn1ccnc1C(=O)/C=C/c1ccc(C(=O)Nc2ccccc2O)cc1 targetentity="UO-31 renal" valuemeasured="1.24 µM"
structure=NC(N)=N/N=C(/c1ccccc1)c1ccc(Cl)cc1 targetentity="UO-31 renal" valuemeasured="17.2 µM"
structure=CC1(C)N=C(N)N=C(N)N1c1ccc(OCC(=O)N2CCOCC2)c(Cl)c1 targetentity="UO-31 renal" valuemeasured="> 100 µM"
structure=Cc1ccc(/C=C/C(=O)c2ccc(N)cc2)c(C)c1 targetentity="UO-31 renal" valuemeasured="1.83 µM"

----------
test system: SF-268 CNS; assay: NCI tumour cell line growth inhibition, 48 h
Recorded measurements of TGI, one per entry
quantityKind: TGI

molecule=O=C(Nc1cccnc1)c1cccc([N+](=O)[O-])c1 targetentity="SF-268 CNS" quantitykind=TGI valuemeasured="> 100 µM"
molecule="COCC(=O)OC1CCn2c1nc1c2C(=O)C(C)=C(NC(C)=O)C1=N (stereo unspecified)" targetentity="SF-268 CNS" quantitykind=TGI valuemeasured="10.3 µM"
molecule=COc1cc(OC)c2cc(C(=O)O)c(=O)oc2c1 targetentity="SF-268 CNS" quantitykind=TGI valuemeasured="> 100 µM"
molecule=O=C1c2ccccc2C(=O)c2c1oc(=O)c1ccccc21 targetentity="SF-268 CNS" quantitykind=TGI valuemeasured="19.7 µM"
molecule=Cc1cc(NS(=O)(=O)c2ccc(NC(=O)c3cccc4cc5ccccc5nc34)cc2)no1 targetentity="SF-268 CNS" quantitykind=TGI valuemeasured="> 100 µM"
molecule=Cc1cc(O)ccc1O targetentity="SF-268 CNS" quantitykind=TGI valuemeasured="> 100 µM"
molecule="CC(=O)O[C@H]1[C@@H](OC2CCCC2(c2ccccc2)c2ccccc2)O[N+]([O-])=C[C@@]12COCc1cc3c(cc12)OCO3 (stereo partly specified)" targetentity="SF-268 CNS" quantitykind=TGI valuemeasured="14.4 µM"
molecule=COc1ccc(C(=O)/C=C/c2ccc(OCC(=O)O)cc2)cc1 targetentity="SF-268 CNS" quantitykind=TGI valuemeasured="> 100 µM"
molecule="COc1cc(S(=O)(=O)Nc2ccc(-c3csc(N4C(=O)C(C)SC4c4ccccc4O)n3)cc2)ccc1Cl (stereo unspecified)" targetentity="SF-268 CNS" quantitykind=TGI valuemeasured="49.9 µM"
molecule=CC(=O)[O-].CC(=O)[O-].O=C(N/N=C/c1cc(Cl)cc(Cl)c1[OH2+])c1ccncc1.[Zn+2] targetentity="SF-268 CNS" quantitykind=TGI valuemeasured="> 100 µM"
molecule=CC(=O)c1c(O)ccc2c(C)c(C(=O)O)oc12 targetentity="SF-268 CNS" quantitykind=TGI valuemeasured="> 100 µM"
molecule=O=C1Cc2ccccc2N1c1c(Cl)cccc1Cl targetentity="SF-268 CNS" quantitykind=TGI valuemeasured="> 100 µM"
molecule=C[N+](C)(C)Cc1c(CC#N)[nH]c2ccccc12 targetentity="SF-268 CNS" quantitykind=TGI valuemeasured="> 100 µM"
molecule=c1ccc2c(-c3nc4ccccc4[nH]3)cccc2c1 targetentity="SF-268 CNS" quantitykind=TGI valuemeasured="> 100 µM"
molecule="Cc1ccc(S(=O)C[C@@]2(C(F)F)NC(=O)NC2=O)cc1 (stereo partly specified)" targetentity="SF-268 CNS" quantitykind=TGI valuemeasured="> 100 µM"
molecule="CC(=O)OCC1OC(n2c3c(cc(C#N)c2=S)CCCCCC3)C(OC(C)=O)C(OC(C)=O)C1OC(C)=O (stereo unspecified)" targetentity="SF-268 CNS" quantitykind=TGI valuemeasured="> 100 µM"
